test system: Mus musculus; test: Antiparkinsonian effect against MPTP-induced hypokinesia in C57/BL6 mouse assessed as time of locomotory activity at 20 mg/kg, po administered 15 mins after 30 mg/kg, ip MPTP challenge measured after 1.5 hrs of compound administration for 2 mins (reference value: 58.3 +/- 3.9 sec); type: functional, C57Bl/6
Threshold check on Time: at or above 50 s gives satisfied, strictly below gives not satisfied.

Illustrative cases are given below, each with its answer.
C=C(C)[C@H]1CC=C(C)[C@H](O)[C@H]1O    not satisfied
C=C(C)[C@@H]1CC=C(C)[C@@H](O)[C@@H]1O    satisfied
C=C(C)[C@H]1CC=C(C)[C@H](O)[C@@H]1O    satisfied
C=C(C)[C@@H]1CC=C(C)[C@H](O)[C@@H]1O    not satisfied
C=C(C)[C@@H]1CC=C(C)[C@@H](O)[C@H]1O    not satisfied

input: Reported Time reaches at least 50 s for C=C(C)[C@H]1CC=C(C)[C@@H](O)[C@@H]1O ?
output: not satisfied

input: Has C=C(C)[C@@H]1CC=C(C)[C@H](O)[C@H]1O a recorded Time greater than or equal to 50 s?
output: satisfied

input: Identify whether the reported Time of the following compound is 50 s or greater: C=C(C)[C@H]1CC=C(C)[C@@H](O)[C@H]1O
output: satisfied

* * *

system: Mus musculus; assay: Antiparkinsonian effect against MPTP-induced hypokinesia in C57/BL6 mouse assessed as number of locomotory acts at 20 mg/kg, po administered 15 mins after 30 mg/kg, ip MPTP challenge measured after 1.5 hrs of compound administration for 2 mins (reference value: 84.1 +/- 1.9 locomotor acts); format: functional, C57Bl/6
Record form. Attribute: Activity. Fill in for each entry.
One number for each entry.

Observe how each entry below is paired with its result.
C=C(C)[C@@H]1CC=C(C)[C@H](O)[C@@H]1O    28.5
C=C(C)[C@H]1CC=C(C)[C@@H](O)[C@@H]1O    65.5
C=C(C)[C@@H]1CC=C(C)[C@@H](O)[C@H]1O    64.9

Would you mind giving Activity for every molecule in the list below?
1. C=C(C)[C@H]1CC=C(C)[C@H](O)[C@@H]1O
2. C=C(C)[C@@H]1CC=C(C)[C@H](O)[C@H]1O
3. C=C(C)[C@@H]1CC=C(C)[C@@H](O)[C@@H]1O
4. C=C(C)[C@H]1CC=C(C)[C@@H](O)[C@H]1O

output:
80.2
77.4
78.6
82.4

input: Assign Activity to the following record: C=C(C)[C@H]1CC=C(C)[C@H](O)[C@H]1O
output: 57.9
